# protocol: Average particle size (ζ-Average) and PDI by dynamic light scattering (Zetasizer Nano ZSP)
# Format: physicochemical
# test-settings: F7siRNA-loaded LNP, 50:10:38.5:1.5, N/P ratio 6
Here the recorded ζ-Average (nm) is given for each entry.
Kindly provide the numeric value in nm only, without the unit symbol.

CCCCCCCCCC(CCCCC)C(=O)OCCCCCCC(O)(CCCCCCOC(=O)C(CCCCC)CCCCCCCCC)CCCCN(CCC)CCC (stereo not shown) :: 89.72

Noted for CCCCC(CC)C(=O)OCCCCCCC(O)(CCCCCCOC(=O)C(CC)CCCC)CCCCOC(=O)C1CCN(C)CC1 (stereo not shown) [CL15F 6-2] : its ζ-Average (nm) reads 390.7

Just so you know, measured ζ-Average (nm) for CCCN(CCC)CCCCC(O)(CCCCCCOC(=O)C(CCC(C)CC(C)(C)C)C(C)CC(C)(C)C)CCCCCCOC(=O)C(CCC(C)CC(C)(C)C)C(C)CC(C)(C)C (stereo not shown) came out at 85.14

Recorded result, CCCCC(CCCC)C(=O)OCCCCCCC(O)(CCCCCCOC(=O)C(CCCC)CCCC)CCCCOC(=O)C1CCN(C)CC1 [CL15F 6-4] , ζ-Average (nm): 230.7

So for CCCCCCCCCCCCC(CC)C(=O)OCCCCCCC(O)(CCCCCCOC(=O)C(CC)CCCCCCCCCCCC)CCCCN(CCC)CCC (stereo not shown) , the logged ζ-Average (nm) turned out to be 80.87

Consider CCCCCCCCCCC(CCCC)C(=O)OCCCCCCC(O)(CCCCCCOC(=O)C(CCCC)CCCCCCCCCC)CCCCN(CCC)CCC (stereo not shown) . Its measured ζ-Average (nm) is 94.55

ζ-Average (nm) reading for CCCCCCC(CCCCCC)C(=O)OCCCCCCC(O)(CCCCCCOC(=O)C(CCCCCC)CCCCCC)CCCCN(CCC)CCC : 99.72

====

# protocol: siRNA/mRNA encapsulation rate by Ribogreen reagent (section IV)
# Assay type: physicochemical
# test-settings: FlucmRNA-loaded LNP, 50:10:38.5:1.5
# reported % mRNA encapsulation; entries follow
Reply with just the number (in %).

CCCCCCCC(CCCCC)C(=O)OCCCCCCC(O)(CCCCCCOC(=O)C(CCCCC)CCCCCCC)CCCCOC(=O)C1CCN(C)CC1 (stereo not drawn) [CL15F 9-5] :: 99.1
CCCCC(CCCC)C(=O)OCCCCCCC(O)(CCCCCCOC(=O)C(CCCC)CCCC)CCCCN(CCC)CCC :: 97.2
CCCCCCC(CCCCCC)C(=O)OCCCCCCC(O)(CCCCCCOC(=O)C(CCCCCC)CCCCCC)CCCCN(CCC)CCC :: 99.4

% mRNA encapsulation for CCCCCCCCC(CCCC)C(=O)OCCCCCCC(O)(CCCCCCOC(=O)C(CCCC)CCCCCCCC)CCCCOC(=O)C1CCN(C)CC1 (stereo not drawn) [CL15F 10-4] is 98.7

// sample CCCCCCCCCCCCC(CC)C(=O)OCCCCCCC(O)(CCCCCCOC(=O)C(CC)CCCCCCCCCCCC)CCCCOC(=O)C1CCN(C)CC1 (stereo not drawn) [CL15F 14-2] , its % mRNA encapsulation was 95.70

Entry CCCCCCCCCCC(CCCC)C(=O)OCCCCCCC(O)(CCCCCCOC(=O)C(CCCC)CCCCCCCCCC)CCCCOC(=O)C1CCN(C)CC1 (stereo not drawn) [CL15F 12-4] , % mRNA encapsulation reported as 99.7

====

# protocol: Average particle size (ζ-Average) and PDI by dynamic light scattering (Zetasizer Nano ZSP)
# Format: physicochemical
# test-settings: F7siRNA-loaded LNP, 50:10:38.5:1.5, N/P ratio 6
Label TRUE when ζ-Average (nm) >= 100 nm; otherwise FALSE.

CCCCCCCC(CCCCCCC)C(=O)OCCCCCCC(O)(CCCCCCOC(=O)C(CCCCCCC)CCCCCCC)CCCCOC(=O)C1CCN(C)CC1 [CL15F 9-7] :: TRUE

Determine whether measured ζ-Average (nm) meets or exceeds 100 nm for CCCCCCCCC(CCCCCC)C(=O)OCCCCCCC(O)(CCCCCCOC(=O)C(CCCCCC)CCCCCCCC)CCCCOC(=O)C1CCN(C)CC1 (stereo not drawn)
TRUE

Determine whether measured ζ-Average (nm) meets or exceeds 100 nm for CCCCCC(CCCCC)C(=O)OCCCCCCC(O)(CCCCCCOC(=O)C(CCCCC)CCCCC)CCCCN(CCC)CCC
TRUE

Given CCCCCCCCC(CC)C(=O)OCCCCCCC(O)(CCCCCCOC(=O)C(CC)CCCCCCCC)CCCCN(CCC)CCC (stereo not drawn) , state whether its ζ-Average (nm) is at least 100 nm.
TRUE

Check if ζ-Average (nm) >= 100 nm (inclusive). Item: CCCCCCC(CCCC)C(=O)OCCCCCCC(O)(CCCCCCOC(=O)C(CCCC)CCCCCC)CCCCN(CCC)CCC (stereo not drawn)
TRUE

====

# Tested on: F7
# protocol: In vivo F7 knockdown, plasma F7 enzyme activity (BIOPHEN FVII), Balb/c mice
# test-settings: i.v. 0.025 mg siRNA/kg, plasma at 24 hours, relative plasma F7 activity of MC3 LNP as 1
Exam item: assign T to entries whose F7 enzyme activity (Ratio using MC3 as 1) is below 1 and F to entries at or above 1. Note that a value of exactly 1 receives F.

Please state whether F7 enzyme activity (Ratio using MC3 as 1) is below 1 for CCCCCCC(CCCCCC)C(=O)OCCCCCCC(O)(CCCCCCOC(=O)C(CCCCCC)CCCCCC)CCCCOC(=O)C1CCN(C)CC1 [CL15F 8-6]
F

Could you please tell me whether F7 enzyme activity (Ratio using MC3 as 1) recorded for CCCCCCCCC(CCCCC)C(=O)OCCCCCCC(O)(CCCCCCOC(=O)C(CCCCC)CCCCCCCC)CCCCOC(=O)C1CCN(C)CC1 (centres unmarked) [CL15F 10-5] is less than 1?
F

Strictly below 1: is that where F7 enzyme activity (Ratio using MC3 as 1) of CCCCCCCCCC(CCCCCCC)C(=O)OCCCCCCC(O)(CCCCCCOC(=O)C(CCCCCCC)CCCCCCCCC)CCCCOC(=O)C1CCN(C)CC1 (centres unmarked) [CL15F 11-7] sits?
T

Does this molecule meet the criterion F7 enzyme activity (Ratio using MC3 as 1) < 1? CCCCCCCCCCCC(CCC)C(=O)OCCCCCCC(O)(CCCCCCOC(=O)C(CCC)CCCCCCCCCCC)CCCCOC(=O)C1CCN(C)CC1 (centres unmarked) [CL15F 13-3]
F

Hello, is F7 enzyme activity (Ratio using MC3 as 1) of the following molecule strictly smaller than 1? CCCCCCCC(CCCCC)C(=O)OCCCCCCC(O)(CCCCCCOC(=O)C(CCCCC)CCCCCCC)CCCCN(CCC)CCC (centres unmarked)
T

Dear colleague, could you confirm whether F7 enzyme activity (Ratio using MC3 as 1) of CCCCCCCCCCCCC(CC)C(=O)OCCCCCCC(O)(CCCCCCOC(=O)C(CC)CCCCCCCCCCCC)CCCCOC(=O)C1CCN(C)CC1 (centres unmarked) [CL15F 14-2] falls below 1? Thanks.
F

State whether 1 exceeds F7 enzyme activity (Ratio using MC3 as 1) recorded for CC(CCC(C(=O)OCCCCCCC(O)(CCCCCCOC(=O)C(CCC(C)CC(C)(C)C)C(C)CC(C)(C)C)CCCCOC(=O)C1CCN(C)CC1)C(C)CC(C)(C)C)CC(C)(C)C (centres unmarked) .
F

Dear colleague, could you confirm whether F7 enzyme activity (Ratio using MC3 as 1) of CCCCCCCCCCC(CCCCCC)C(=O)OCCCCCCC(O)(CCCCCCOC(=O)C(CCCCCC)CCCCCCCCCC)CCCCN(CCC)CCC (centres unmarked) falls below 1? Thanks.
T

====

Below, each of the molecules is paired with its reported period for which quality remained good, 25° C. value.
# protocol: Storage stability of FlucmRNA-loaded LNP at −80, 5, 25 and 40° C.
# Assay type: physicochemical
# test-settings: maximum storage period 5 weeks
Write the number in weeks without appending the unit.

CCCCCCCCC(CCCCCC)C(=O)OCCCCCCC(O)(CCCCCCOC(=O)C(CCCCCC)CCCCCCCC)CCCCN(CCC)CCC (stereo not shown) :: 5

Looking up CCCCCCCCCC(CCCCCCCCC)C(=O)OCCCCCCC(O)(CCCCCCOC(=O)C(CCCCCCCCC)CCCCCCCCC)CCCCOC(=O)C1CCN(C)CC1 [CL15F 11-9] , I see its period for which quality remained good, 25° C. listed as 5

Entry under test: CCCCCCCCC(CC)C(=O)OCCCCCCC(O)(CCCCCCOC(=O)C(CC)CCCCCCCC)CCCCN(CCC)CCC (stereo not shown) . Its period for which quality remained good, 25° C. was 1

Quick note, period for which quality remained good, 25° C. for CCCCCCC(CCCCCC)C(=O)OCCCCCCC(O)(CCCCCCOC(=O)C(CCCCCC)CCCCCC)CCCCN(CCC)CCC landed at 5

For reference, reported period for which quality remained good, 25° C. for CCCCCCCCCC(CCCCCCC)C(=O)OCCCCCCC(O)(CCCCCCOC(=O)C(CCCCCCC)CCCCCCCCC)CCCCOC(=O)C1CCN(C)CC1 (stereo not shown) [CL15F 11-7] stands at 5

get_value(item= CCCCCCC(CCCC)C(=O)OCCCCCCC(O)(CCCCCCOC(=O)C(CCCC)CCCCCC)CCCCN(CCC)CCC (stereo not shown) , readout=period for which quality remained good, 25° C.) returns 5

Documented period for which quality remained good, 25° C. of CCCCCCCCC(CCCCC)C(=O)OCCCCCCC(O)(CCCCCCOC(=O)C(CCCCC)CCCCCCCC)CCCCN(CCC)CCC (stereo not shown) : 5
